# credit: PubChem BioAssay AID1602

Test system: mutant SOD1 toxicity cell model, protection read-out
Assay: cell protection against mutant SOD1 damage (AID 1602)
Records with an inconclusive call do not appear.
Reported pEC50 by item:
# reply with the number alone; pEC50 is -log10 of concentration in mol/L

CO/N=C(/C(=O)NC1C(=O)N2C(C(=O)O)=C(COC(N)=O)CSC12)c1ccco1 (centres undefined) ... 4.30

Now look at this entry.
Asked: Please supply the value of reported pEC50 for the item CC(C(=O)O)c1cccc(C(=O)c2ccccc2)c1 (centres undefined)
Given back: 4.12

* * *

Test system: mutant SOD1 toxicity cell model, protection read-out
Test: cell protection against mutant SOD1 damage (AID 1602)
Inconclusive results are not listed. Peptide text beside a SMILES is read from it.
measurement.label: pEC50
# reply with the number alone; pEC50 is -log10 of concentration in mol/L

Worked set:
NC[C@@H]1O[C@H](O[C@@H]2[C@@H](CO)OC(O[C@@H]3[C@@H](O)[C@H](N)C[C@H](N)[C@H]3OC3O[C@H](CN)[C@@H](O)[C@H](O)[C@H]3N)[C@@H]2O)[C@H](N)[C@@H](O)[C@@H]1O (some centres not stated) ... 4.30
NCCCC(=O)O ... 4.30
C[C@H](CS)C(=O)N1CCC[C@H]1C(=O)O ... 4.12

Asked: Please supply the value of reported pEC50 for the item COC(=O)C1[C@H]2C[C@H]3c4[nH]c5ccccc5c4CCN3C[C@@H]2CC[C@@H]1O (some centres not stated)
Given back: 4.30

Asked: Please supply the value of reported pEC50 for the item `Nc1ccc(S(=O)(=O)Nc2nccs2)cc1`
Given back: 4.30

Asked: Please supply the value of reported pEC50 for the item `CC(=O)N[C@@H](CS)C(=O)O`
Given back: 4.30

Asked: Please supply the value of reported pEC50 for the item `CN[C@H](CC(=O)O)C(=O)O`
Given back: 4.30

Asked: Please supply the value of reported pEC50 for the item NCCCCC(N)C(=O)NC(Cc1ccc(O)cc1)C(=O)NC(CCCCN)C(=O)O (stereo not drawn) (H-Lys-Tyr-Lys-OH; configuration not given here)
Given back: 4.12

Asked: Please supply the value of reported pEC50 for the item `CNCCc1ccccn1`
Given back: 4.30

Asked: Please supply the value of reported pEC50 for the item `Cc1ccc(/C(=C\CN2CCCC2)c2ccccn2)cc1`
Given back: 4.30

Asked: Please supply the value of reported pEC50 for the item `NC(N)=NC(N)=Nc1ccccc1`
Given back: 4.30

* * *

System: mutant SOD1 toxicity cell model, protection read-out
Test: cell protection against mutant SOD1 damage (AID 1602)
Records with an inconclusive call do not appear.
measurement.label: EC50

Worked set:
CN1C2CCC1CC(OC(=O)C(CO)c1ccccc1)C2 (stereo unspecified) ... 50 µM
COc1c2occc2c(OC)c2c(=O)cc(C)oc12 ... 75 µM
CC(COc1ccccc1)NC(C)[C@H](O)c1ccc(O)cc1 (stereo partly specified) ... 50 µM

Asked: Please supply the value of reported EC50 for the item `CC(=O)Nc1cc([As](=O)(O)O)ccc1O`
Given back: 50 µM

Asked: Please supply the value of reported EC50 for the item `Nc1ccc(S(N)(=O)=O)cc1`
Given back: 50 µM

Asked: Please supply the value of reported EC50 for the item CC(C)CC1NC(=O)CNC1=O (stereo unspecified)
Given back: 50 µM

Asked: Please supply the value of reported EC50 for the item C[C@H](CCC(=O)O)[C@H]1CCC2C3C(=O)CC4CC(=O)CC[C@]4(C)C3CC(=O)[C@@]21C (stereo partly specified)
Given back: 50 µM

Asked: Please supply the value of reported EC50 for the item `c1ccc2c(CC3=NCCN3)cccc2c1`
Given back: 50 µM

Asked: Please supply the value of reported EC50 for the item CO/N=C(\C(=O)NC1C(=O)N2C(C(=O)O)=C(CSc3nc(=O)c(O)nn3C)CS[C@H]12)c1csc(N)n1 (stereo partly specified)
Given back: 75 µM

Asked: Please supply the value of reported EC50 for the item CCN1C[C@@]2(COC)C3[C@@H](OC)[C@H]4[C@@H]1[C@]3(C(OC)C[C@H]2O)C1C[C@@]2(O)[C@H](OC(=O)c3ccccc3)C1[C@]4(OC(C)=O)[C@@H](O)[C@@H]2OC (stereo partly specified)
Given back: 50 µM

Asked: Please supply the value of reported EC50 for the item Cc1ccc(C(=O)C(C)CN2CCCCC2)cc1 (stereo unspecified)
Given back: 50 µM

Asked: Please supply the value of reported EC50 for the item `NC(N)=O`
Given back: 75 µM

Asked: Please supply the value of reported EC50 for the item CC[N+]1(C)CCCC(OC(=O)C(O)(c2ccccc2)c2ccccc2)C1 (stereo unspecified)
Given back: 50 µM

Asked: Please supply the value of reported EC50 for the item `O=C1NCC2(CCN(CCc3ccccc3)CC2)O1`
Given back: 50 µM
